Recorded kon by entry
# TARGET_OR_TEST_SYSTEM: human IL-6 (human, UniProt P05231 30-212)
# Sequence (P05231 30-212 limits assumed): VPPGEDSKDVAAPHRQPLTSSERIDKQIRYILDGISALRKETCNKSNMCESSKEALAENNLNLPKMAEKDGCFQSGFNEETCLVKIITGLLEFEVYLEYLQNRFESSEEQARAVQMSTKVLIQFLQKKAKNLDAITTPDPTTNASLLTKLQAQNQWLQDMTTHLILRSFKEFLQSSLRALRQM
# ASSAY_TEXT: SPR (Biacore), supernatant antibody on Protein A chip, IL-6 flowed, 37 C

BINDER	kon, M⁻¹ s⁻¹
anti-IL-6 antibody, heavy chain T65Q, G66D / light chain M32L, M50D, N52S, M88Q (antibody, human IgG1, V domains shown, Human IgG1) VH: EVQLVESGGGLVQPGGSLRLSCAASGFTFSPFAMSWVRQAPGKGLEWVAKISPGGSWTYYSDTVQDRFTFSLDTSKSTAYLQMNSLRAEDTAVYYCARQLWGYYALDIWGQGTLVTVSS VL: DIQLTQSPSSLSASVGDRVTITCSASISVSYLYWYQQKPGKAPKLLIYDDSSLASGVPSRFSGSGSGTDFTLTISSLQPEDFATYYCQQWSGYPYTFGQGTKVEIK	2.18e+06
anti-IL-6 antibody, heavy chain I51V, G66D / light chain M32L, M50D, N52S, M88Q (antibody, human IgG1, V domains shown, Human IgG1) VH: EVQLVESGGGLVQPGGSLRLSCAASGFTFSPFAMSWVRQAPGKGLEWVAKVSPGGSWTYYSDTVTDRFTFSLDTSKSTAYLQMNSLRAEDTAVYYCARQLWGYYALDIWGQGTLVTVSS VL: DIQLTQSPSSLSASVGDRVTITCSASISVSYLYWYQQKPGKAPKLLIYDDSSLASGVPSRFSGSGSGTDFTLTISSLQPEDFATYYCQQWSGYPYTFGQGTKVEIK	1.76e+06
anti-IL-6 antibody, heavy chain S35K, G66D / light chain M32L, M50D, N52S, M88Q (antibody, human IgG1, V domains shown, Human IgG1) VH: EVQLVESGGGLVQPGGSLRLSCAASGFTFSPFAMKWVRQAPGKGLEWVAKISPGGSWTYYSDTVTDRFTFSLDTSKSTAYLQMNSLRAEDTAVYYCARQLWGYYALDIWGQGTLVTVSS VL: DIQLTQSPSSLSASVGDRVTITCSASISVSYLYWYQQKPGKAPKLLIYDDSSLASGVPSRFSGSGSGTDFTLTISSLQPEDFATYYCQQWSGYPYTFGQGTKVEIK	1.31e+06
anti-IL-6 antibody, heavy chain T65Y, G66D / light chain M32L, M50D, N52S, M88Q (antibody, human IgG1, V domains shown, Human IgG1) VH: EVQLVESGGGLVQPGGSLRLSCAASGFTFSPFAMSWVRQAPGKGLEWVAKISPGGSWTYYSDTVYDRFTFSLDTSKSTAYLQMNSLRAEDTAVYYCARQLWGYYALDIWGQGTLVTVSS VL: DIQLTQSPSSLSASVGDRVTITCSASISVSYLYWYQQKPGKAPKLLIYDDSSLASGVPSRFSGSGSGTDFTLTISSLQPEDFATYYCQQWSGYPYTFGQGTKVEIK	1.55e+06
anti-IL-6 antibody, heavy chain I51G, G66D / light chain M32L, M50D, N52S, M88Q (antibody, human IgG1, V domains shown, Human IgG1) VH: EVQLVESGGGLVQPGGSLRLSCAASGFTFSPFAMSWVRQAPGKGLEWVAKGSPGGSWTYYSDTVTDRFTFSLDTSKSTAYLQMNSLRAEDTAVYYCARQLWGYYALDIWGQGTLVTVSS VL: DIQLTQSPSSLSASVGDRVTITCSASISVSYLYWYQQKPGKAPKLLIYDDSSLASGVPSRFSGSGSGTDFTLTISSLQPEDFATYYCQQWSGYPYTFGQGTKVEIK	1.4e+06
anti-IL-6 antibody, heavy chain T63W, G66D / light chain M32L, M50D, N52S, M88Q (antibody, human IgG1, V domains shown, Human IgG1) VH: EVQLVESGGGLVQPGGSLRLSCAASGFTFSPFAMSWVRQAPGKGLEWVAKISPGGSWTYYSDWVTDRFTFSLDTSKSTAYLQMNSLRAEDTAVYYCARQLWGYYALDIWGQGTLVTVSS VL: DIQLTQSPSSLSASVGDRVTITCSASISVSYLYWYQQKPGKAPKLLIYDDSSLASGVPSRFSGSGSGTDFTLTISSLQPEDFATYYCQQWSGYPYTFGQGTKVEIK	1.57e+06
anti-IL-6 antibody, heavy chain T65H, G66D / light chain M32L, M50D, N52S, M88Q (antibody, human IgG1, V domains shown, Human IgG1) VH: EVQLVESGGGLVQPGGSLRLSCAASGFTFSPFAMSWVRQAPGKGLEWVAKISPGGSWTYYSDTVHDRFTFSLDTSKSTAYLQMNSLRAEDTAVYYCARQLWGYYALDIWGQGTLVTVSS VL: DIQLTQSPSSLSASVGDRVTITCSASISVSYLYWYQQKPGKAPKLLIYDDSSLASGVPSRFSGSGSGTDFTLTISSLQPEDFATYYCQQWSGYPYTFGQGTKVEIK	1.43e+06
anti-IL-6 antibody, heavy chain T63E, G66D / light chain M32L, M50D, N52S, M88Q (antibody, human IgG1, V domains shown, Human IgG1) VH: EVQLVESGGGLVQPGGSLRLSCAASGFTFSPFAMSWVRQAPGKGLEWVAKISPGGSWTYYSDEVTDRFTFSLDTSKSTAYLQMNSLRAEDTAVYYCARQLWGYYALDIWGQGTLVTVSS VL: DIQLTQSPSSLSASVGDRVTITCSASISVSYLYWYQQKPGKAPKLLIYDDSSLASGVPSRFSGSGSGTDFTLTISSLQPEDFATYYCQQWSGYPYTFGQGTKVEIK	2e+06
anti-IL-6 antibody, heavy chain S35F, G66D / light chain M32L, M50D, N52S, M88Q (antibody, human IgG1, V domains shown, Human IgG1) VH: EVQLVESGGGLVQPGGSLRLSCAASGFTFSPFAMFWVRQAPGKGLEWVAKISPGGSWTYYSDTVTDRFTFSLDTSKSTAYLQMNSLRAEDTAVYYCARQLWGYYALDIWGQGTLVTVSS VL: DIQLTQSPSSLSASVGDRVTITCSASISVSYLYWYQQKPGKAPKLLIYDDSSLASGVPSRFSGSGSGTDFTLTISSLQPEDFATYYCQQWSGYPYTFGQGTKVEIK	1.53e+06
anti-IL-6 antibody, heavy chain S35L, G66D / light chain M32L, M50D, N52S, M88Q (antibody, human IgG1, V domains shown, Human IgG1) VH: EVQLVESGGGLVQPGGSLRLSCAASGFTFSPFAMLWVRQAPGKGLEWVAKISPGGSWTYYSDTVTDRFTFSLDTSKSTAYLQMNSLRAEDTAVYYCARQLWGYYALDIWGQGTLVTVSS VL: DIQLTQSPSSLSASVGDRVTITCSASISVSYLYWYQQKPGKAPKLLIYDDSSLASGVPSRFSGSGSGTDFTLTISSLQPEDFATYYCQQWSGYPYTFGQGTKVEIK	942000
